Here the recorded melting point is given for each entry.

Previously resolved entries follow.
COMPOUND	melting point
Cl.O=C(Cc1ccccn1)Nc1ccc(CCNCC(O)c2ccc(F)cc2)cc1 (centres unmarked)	223 to 225 °C
Cl.Cl.O=C(Cc1nc[nH]n1)Nc1ccc(CCNC[C@H](O)c2ccccc2)cc1	221 to 224 °C
CCOC(=O)Nc1nc(CC(=O)Nc2ccc(CCNC[C@H](O)c3ccccc3)cc2)ns1.Cl	205 to 208 °C
Cl.O=C(Cc1ccc2ccccc2n1)Nc1ccc(CCNC[C@H](O)c2ccccc2)cc1	234 to 235 °C

Next up:
Give melting point for "Cl.O=C(Cc1ccccn1)Nc1ccc(OCCNC[C@H](O)c2ccccc2)cc1"
225 to 226 °C
